molecular target: Thyrotropin-releasing hormone receptor (Homo sapiens) (UniProt P34981); assay: qHTS for Small Molecule Agonists and Allosteric Enhancers of Human TRH Receptor: Confirmation Screen for Agonists; conditions: TRHR-expressing cells, agonist activation read-out; series mostly up to 46.1 µM; further: nearly all actives have a fitted effect of over 75% in size; further: potency means the concentration at half of the fitted maximal effect
Sequence (P34981 whole entry, looked up): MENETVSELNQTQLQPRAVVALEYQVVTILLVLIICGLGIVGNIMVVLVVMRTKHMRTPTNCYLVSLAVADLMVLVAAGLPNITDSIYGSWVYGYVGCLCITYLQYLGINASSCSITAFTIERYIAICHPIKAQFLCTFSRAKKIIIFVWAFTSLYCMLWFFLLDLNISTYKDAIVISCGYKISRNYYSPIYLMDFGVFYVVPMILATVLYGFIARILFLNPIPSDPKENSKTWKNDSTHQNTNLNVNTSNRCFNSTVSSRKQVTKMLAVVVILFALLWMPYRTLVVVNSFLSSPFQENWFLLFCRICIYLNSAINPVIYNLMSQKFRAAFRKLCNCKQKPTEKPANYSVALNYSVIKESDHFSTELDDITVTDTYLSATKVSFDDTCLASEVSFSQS
The list shows a part of the results. Inconclusive results are not listed. Calls of active or inactive are those of the source. The call rests on the fitted dose curve; in most records, active means well fitted activation curve with a large enough effect; inconclusive means small, poorly fitted or top-dose-only effect; inactive means flat fitted curve, though single readings scatter.
REPORTED_ENDPOINT: Potency

Cc1c(/C=N\NC(=O)c2cc3ccccc3o2)c2ccccc2n1C	inactive
NC(N)=Nc1nc(-c2ccccc2)c2cc(Cl)ccc2n1	inactive
COc1ccc(Cl)cc1NC(=O)CN(C)Cc1ccc(OC)c(OC)c1	inactive
CCc1ccccc1NC(=O)/C(=C/c1ccccc1)c1ccccc1	inactive
CSc1nnnn1-c1c(C)cc(C)cc1C	inactive
Cc1cc(S(=O)(=O)c2cc3ccc(O)c(C)c3oc2=O)ccc1F	20.6 µM (active)
